- TARGET_UNDER_TEST: benzodiazepine receptor
- ASSAY_TEXT: Radioligand competition binding with [3H]-flumazenil
- CONDITION_PARAMETERS: rat brain membrane, 35 min at 30 °C, read-out: IC50 (95% CI)
PROPERTY_LABEL: pIC50
For clarity, pIC50 is expressed as the negative log10 of concentration in mol/L.

CN1C(=O)CN=C(c2ccccc2)c2cc(Cl)ccc21 [Diazepam, reference compound] has a reported pIC50 of 8.77

O=C(Nc1ccccc1-c1nnc(-c2ccccc2)o1)c1ccccc1 has a reported pIC50 of 7.99

O=C(Nc1ccccc1-c1nnc(-c2ccccc2)o1)c1ccc(Cl)cc1 has a reported pIC50 of 8.12

Cc1ccc(C(=O)Nc2ccccc2-c2nnc(-c3ccccc3)o2)cc1 has a reported pIC50 of 8.37

O=C(O)CCC(=O)Nc1ccccc1-c1nnc(-c2ccccc2)o1 has a reported pIC50 of 8.78

CC(=O)Nc1ccccc1-c1nnc(-c2ccccc2)o1 has a reported pIC50 of 8.56

COc1ccc(C(=O)Nc2ccccc2-c2nnc(-c3ccccc3)o2)cc1 has a reported pIC50 of 8.52

O=C(Nc1ccccc1-c1nnc(-c2ccccc2)o1)c1ccc(F)cc1 has a reported pIC50 of 8.22

O=C(Nc1ccccc1-c1nnc(-c2ccccc2)o1)c1ccc([N+](=O)[O-])cc1 has a reported pIC50 of 8.04

CCC(=O)Nc1ccccc1-c1nnc(-c2ccccc2)o1 has a reported pIC50 of 8.59

O=C(O)c1ccccc1C(=O)Nc1ccccc1-c1nnc(-c2ccccc2)o1 has a reported pIC50 of 8.81

Origin of measurements: paper PMC8842605
